Source of measurements: PubChem BioAssay (NCI)

Assay: NCI Yeast Anticancer Drug Screen. Data for the mlh1 rad18 strain (AID 175)
Details: S. cerevisiae mlh1 rad18 strain growth inhibition; at 50.0 µM; stronger effect = higher value
Compounds without any hit were thinned out: in the full panel of roughly 79,000, 15% have a hit.
PROPERTY: growth inhibition (%)

>>> print(df.to_string())
                                   compound           property  unit_descriptor  value
0                        CCCCCCCC(=O)O.[Ni]  growth inhibition                %  -18.5
1                  N#Cc1ccc(/C=C/C(=O)O)cc1  growth inhibition                %   -4.3
2  NC(Cc1cccc(NP(=S)(NCCO)N2CC2)c1)C(=O)O (stereo unspecified)  growth inhibition                %   4.35
3  O=C(CCCN1CCC2(CC1)C(=O)NCN2c1ccccc1)c1ccccc1  growth inhibition                %  -2.15
4  Oc1ccccc1/C=N/Sc1ccccc1.Oc1ccccc1/C=N/Sc1ccccc1.[Ni+2]  growth inhibition                %     36
5  Cc1ccc(N2C(=O)C3C(C2=O)C2(Cl)C(Cl)=C(Cl)C3(Cl)C2(Cl)Cl)cc1Cl (stereo unspecified)  growth inhibition                %    9.5

====

Assay: NCI Yeast Anticancer Drug Screen. Data for the cln2 rad14 strain (AID 165);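 note: 0% = growth equal to vehicle treated cultures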
Details: S. cerevisiae cln2 rad14 strain, at 50.0 µM
This is part of a sample that, as a whole, favours compounds with a hit. Of some 79,000 tested, about 15% had one in any assay. The source made the active and inactive calls. Cut-off read from the data, not from the text of the source: active = growth inhibition above about 70%; inactive = the rest. Where a SMILES comes first, the peptide text is derived from it. [ ]: non-standard residue; d: D form. ξ: configuration not given here. ξPhe(4-N(CH2CH2Cl)2) = NC(Cc1ccc(N(CCCl)CCCl)cc1)C(=O)O
Possible outcomes: 1.0 for active, 0.0 for inactive

MOLECULE	DISCRETE LABEL
O=c1ccc(=O)[nH][nH]1.[Mn]	0.0
CC(Cc1ccc(O)cc1)NCC(O)c1cc(O)cc(O)c1 (stereo unspecified)	0.0
Oc1ccccc1C=NCCN=Cc1ccccc1O.[Zn+2]	0.0
C/C=C\CC1(C/C=C/C)C(=O)NC(=O)NC1=O	0.0
CC1C(C)(C)P(=O)(Oc2ccc3ccccc3c2)C1(C)C (stereo unspecified)	1.0
CCC1(O)N=C(c2ccccc2)c2ccccc2-n2cccc21 (stereo unspecified)	0.0
CCOC(=O)C[Se]CC(=O)OCC	0.0
C/C=C(/C)C(=O)O[C@H]1CC[C@@]2(C)[C@@H]3CC[C@H]4[C@]5(O)C[C@H](O)[C@@]6(O)[C@@H](CN7C[C@@H](C)CC[C@H]7[C@@]6(C)O)[C@]5(O)C[C@@]42O[C@@]13O	0.0
CCC[CH2][Sn]([Cl])([Cl])[CH2]CCC.c1ccncc1	1.0
O=C1NC(=O)C(=C/C=C/c2ccccc2)C(=O)N1	0.0
[N-]=[N+]=[N-]	0.0
CN(C)/N=C/c1c[nH]c2ccccc12	0.0
Cc1nc2ccccc2c(=O)n1-c1ccccc1F	0.0
COc1cc(C)c(C(CC(=O)O)CC(=O)N(CCCl)CCCl)cc1C(C)C (stereo unspecified)	0.0
NNc1ccc([N+](=O)[O-])cc1	0.0
O=CC1(c2ccccc2)CCNCC1	0.0
N/C(=N/N=C/c1ccc(O)cc1)N[N+](=O)[O-]	0.0
CCOC(=O)/C=C1/C=C(C)CC(C)(C)C1 (tested in a mixture with another compound)	0.0
CCCCOP(O)(=S)OCCCC.[Tb]	0.0
N#CCC#N	0.0
O=[N+]([O-])c1cccc([As](=O)(O)c2ccc(O)c([N+](=O)[O-])c2)c1	0.0
CC(C)(C)N1OC1c1cccc(Cl)c1 (stereo unspecified)	0.0
[Se]=[Hf]=[Se]	0.0
C=CCOC(=O)Cc1ccccc1	0.0
C1CN1[PH+](N1CC1)N1CC1.[C-]#[O+].[C-]#[O+].[C-]#[O+].[C-]#[O+].[C-]#[O+].[W]	0.0
COc1ccc(NC(=O)COc2cccc(Cl)c2)cc1S(=O)(=O)F	0.0
Cc1ccc(C[N+](C)(C)C)cc1	0.0
CO[C@H]1C[C@H](O[C@H]2CC[C@]3(C=O)[C@H]4CC[C@]5(C)[C@@H](C6=CC(=O)OC6)CC[C@]5(O)[C@@H]4CC[C@]3(O)C2)O[C@H](C)[C@H]1O	0.0
CCOC(=O)C(Cc1ccc(N(CCCl)CCCl)cc1)NC(=O)C(Cc1ccccc1)NC(=O)C(NC(=O)CNC(=O)C1CCCN1)C(C)C (stereo unspecified) (H-PGVF[ξPhe(4-N(CH2CH2Cl)2)]-OEt; configuration not given here)	0.0
NC(N)=N/N=C/c1ccc(Cl)c(Cl)c1	0.0
NCCc1c[nH]c2ccccc12	0.0
COCCOC(=O)NCP(Cl)(CNC(=O)OCCOC)(CNC(=O)OCCOC)CNC(=O)OCCOC	0.0
Oc1ccccc1C=NCCN=Cc1ccccc1O	0.0
ClC12OOC(c3ccccc3)(O1)C(c1ccccc1)c1ccccc12 (stereo unspecified)	0.0
Cc1csc2sc3ccccc3[n+]12	0.0
CC(=O)OC[C@]12CCC(C)=C[C@H]1O[C@@H]1[C@H](O)[C@@H](OC(C)=O)[C@@]2(C)[C@@]12CO2	0.0
O=S=NN(CC(Cl)c1ccccc1)CC(Cl)c1ccccc1 (stereo unspecified)	0.0
CN(C)P1(N(C)C)=NP(c2ccccc2)(c2ccccc2)=NP(N(C)C)(N(C)C)=N1	0.0
NC(Cc1ccc(O)c(O)c1)c1ccccc1 (stereo unspecified)	0.0
CC(C)COC(=O)Cc1ccccc1	0.0
CCC(=O)[O-].CCC(=O)[O-].N.N.N.N.[Co+3].[O-][Cl+3]([O-])([O-])[O-]	0.0
CCCCC(=O)c1cc(OC)cc(OC)c1	0.0
Oc1ccc(Cl)cc1Br	0.0
O=N[O-].O=N[O-].[Co].[NH-]CC[N-]CCO.[NH-]CC[N-]CCO	0.0
CC(=O)Nc1cccc([As]=O)c1 (stereo unspecified)	0.0
Cc1ccc(NC(=O)N(C)N=O)cc1	0.0
